# testMethodNotes: NCI Yeast Anticancer Drug Screen. Data for the bub3 strain (AID 167)
# testParameters: S. cerevisiae bub3 mutant strain, at 50.0 µM, hits give high values
Compounds without any hit were thinned out: in the full panel of roughly 79,000, 15% have a hit. Calls of active or inactive are those of the source. No stated cut-off is given here; in the data, active means growth inhibition above about 70%; inactive means the rest.

compound: N#CC(C#N)=C1c2ccccc2Sc2ccccc21
growth inhibition: -11.5% (inactive)

compound: CCCCCCCCCCCCCCCCCCCCCC(=O)O
growth inhibition: -2.15% (inactive)

compound: CC(=O)OCC1OC(n2c(-c3ccc(C)cc3)cc(-c3ccccc3)c(C#N)c2=S)C(OC(C)=O)C(OC(C)=O)C1OC(C)=O (configuration not stated)
growth inhibition: 27.9% (inactive)

compound: CCCCCCCCNC=O
growth inhibition: 13.1% (inactive)

compound: O=C(O)/C=C\C(=O)Nc1ccccn1
growth inhibition: -44.9% (inactive)

compound: Cc1ccc2c(c1)P(=O)(O)c1cc(C)ccc1O2
growth inhibition: -9.6% (inactive)

compound: O=C1C(CO)=C[C@@H](O)[C@H]2O[C@@H]12
growth inhibition: 15.9% (inactive)

compound: CCCOC(=O)C1(C)CCC(=O)O1 (configuration not stated)
growth inhibition: -13.2% (inactive)

compound: O=C(NCCO)[C@H](O)[C@@H](O)[C@H](O)[C@H](O)CO
growth inhibition: 14.9% (inactive)

compound: CC(C)c1cccc(C(C)C)c1NC(=O)C(=O)C(C(=O)c1ccccc1-c1ccccc1)C1OC(=O)c2ccccc21 (configuration not stated)
growth inhibition: -3.05% (inactive)

compound: CCCC1([N+](=O)[O-])CCC(C)(O)C(/C(C)=N\O)C1 (configuration not stated)
growth inhibition: 26.1% (inactive)

compound: CCCCCc1c(C)nc(N)[nH]c1=O
growth inhibition: -15.4% (inactive)

The origin of these recorded values is PubChem BioAssay (NCI).
